- test.name: recombinant barcode read abundance after kanamycin selection (control-corrected) (log10(CPM+1)); higher = more efficient recombination; sequences stand for … in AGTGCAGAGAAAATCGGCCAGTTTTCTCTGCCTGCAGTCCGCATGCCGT…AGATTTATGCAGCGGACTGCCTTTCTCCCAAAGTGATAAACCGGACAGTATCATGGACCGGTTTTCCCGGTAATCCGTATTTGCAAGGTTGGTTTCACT; site = the 11-nt target;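 note: IS621 recombinase and bridge RNA in Escherichia coli cells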
reported.property: recombinant barcode read abundance (log10)
Keep the answer to the number alone.

Example entries and their recorded answers appear below.
[
  {
    "chain": "GGCTTGTCTTGGGTTCTAACCTGTTGCCT (site GGCTTGTCTAG)",
    "result": 0.655
  },
  {
    "chain": "GGGGCGACTTGGGTTCTAACCTGTTGCCT (site GGGGCGACTAG)",
    "result": 0.358
  },
  {
    "chain": "GTTAGAGCTTGGGTTCTAACCTGTTGCCT (site GTTGGAGCTAG)",
    "result": 0.0737
  },
  {
    "chain": "TCGTGCGCTTGGGTTCTAACCTGTTGCCT (site TCGTGCACTAG)",
    "result": 0.177
  },
  {
    "chain": "GTCCGTCCTTGGGTTCTAACCTGTTGCGT (site GTCCGTCCTAG)",
    "result": 0.09
  },
  {
    "chain": "GGATCCTCTTGGGTTCTAACCTGTTGCCG (site GGATCCTCTCG)",
    "result": 1.45
  }
]

Given GAGTTCCCTTGGGTTCTAACCTGTTGCCC (site GAGTTCCCTGG) , state its recorded recombinant barcode read abundance (log10).
1.54

Same again, this time with GCCGATACTTGGGTTCTAACCTGTTGCCT (site GCCGACACTAG)
0.171

Same again, this time with TACACGACTTGGGTTCTAACCTGTTGCGG (site TACACGACTCC)
1.51

Same again, this time with ACTATGTCTTGGGTTCTAACCTGTTGCCA (site ACTATGTCTTG)
0.147

Taken from the supplement of paper PMC11208160.
